Attribution: ChEMBL document CHEMBL1201862

- Test system: ACHN
- assay.remarks: NCI tumour cell line growth inhibition, 48 h
Active and inactive are the calls of the source. Cut-off read from the data, not from the text of the source: active = GI50 up to about 1.1 µM and inactive = higher.
measurement.kind: GI50

Query: # query: GI50 | item "O=C(CCCl)NN=C1NCCN1" | system: ACHN
Result: > 100 µM (inactive)

Query: Item: "O=c1/c(=C/c2ccccc2[N+](=O)[O-])sc2nnc(-c3ccco3)n12" Test system: ACHN Read-out: GI50 Value: ?
Result: 52.5 µM (inactive)

Query: Lab request: please report GI50 under test system ACHN for O=C1C=C2C(=NC34CCCCC3C(c3ccccc3)C3=C(c5ccccc5CC3)N24)c2ccccc21 (stereo not given)
Result: > 10 µM (inactive)

Query: Param readout = GI50; param system = ACHN; param query = "N#CCN(Cc1ccccc1)[C@H]1CCC[C@]1(O)/C=C/c1ccc2c(c1)OCO2" ; response: value
Result: 42 µM (inactive)

Query: Value wanted: GI50 (ACHN) of entry "CO[C@]1(c2ccc([N+](=O)[O-])cc2)Oc2ccccc2C(=O)[C@@]1(Nc1ccc(C=O)cc1)OC"
Result: > 10 µM (inactive)

Query: What reported GI50 corresponds to "CNC(=S)N1CCN(C(C)=O)C1=S" on ACHN?
Result: > 100 µM (inactive)

Query: ACHN / GI50 / "O=C(O)/C(Cl)=C(\Cl)C(=O)Nc1ccc(Cl)c(Cl)c1Cl" : value?
Result: 18.1 µM (inactive)

Query: Request body: readout GI50, system ACHN, query COC1CC(OC(=O)c2ccccc2)C(OC(=O)c2ccccc2)C(C)O1 (stereo not given) . Return the value.
Result: > 100 µM (inactive)

Query: Test system ACHN; read-out GI50; what value for "c1ccc(CNc2ncnc3nn[nH]c23)cc1" ?
Result: > 100 µM (inactive)

Query: Reported GI50 for ACHN, given Cc1ccc(N2C(=O)C(O)=C(C(=O)C(C)(C)C)C2c2ccc([N+](=O)[O-])cc2)cc1 (stereo not given) ?
Result: 16.6 µM (inactive)

----------
- Test system: SR
- assay.remarks: NCI tumour cell line growth inhibition, 48 h
The source made the active and inactive calls. No stated cut-off is given here; in the data, active = GI50 up to about 1.1 µM and inactive = higher. Square brackets hold non-standard residues; d marks the D form. Peptide text beside a SMILES is read from it. pGlu = O=C1CC[C@@H](C(=O)O)N1; Thz = O=C(O)[C@@H]1CSCN1
Choose the fitting class; nothing outside y for active, n for inactive is accepted.

Query: What did the test return for "CN(C)c1nc2oc(-c3ccccc3)c(-c3ccccc3)c2c2nnnn12" ?
Result: n

Query: Short answer needed: outcome of this test for "CNC(=O)Nc1ccccc1" ?
Result: n

Query: What did this assay record as the result for COc1c(C)c(O)c2c(c1C)OC(c1ccccc1)CC2=O (configuration not stated) ?
Result: n

Query: // param item: "CO[C@]1(c2ccc([N+](=O)[O-])cc2)Oc2ccccc2C(=O)[C@@]1(Nc1ccc(C=O)cc1)OC" ; yields the recorded call
Result: n

Query: Dear all, I need the recorded test outcome for CC(CCc1ccccc1)NCC(O)n1c(/N=N/N(C)C)nc2c1c(=O)n(C)c(=O)n2C (configuration not stated) , thank you.
Result: n

Query: Just curious, what result did "CSC(=S)Nc1cc(C)cc(C)n1" get here?
Result: n

Query: Record lookup: outcome of this test for "CCOC(=O)c1ccc2nc(NC(=O)COC(=O)CSc3nc(C)cc(C)n3)sc2c1" ?
Result: n

Query: // return assay outcome for CC(=O)N1c2ccccc2C23CCN(C)CC4C(C)OCC(C4CC2=O)C13 (configuration not stated)
Result: n

Query: Answer briefly: the call reported for "Clc1ccc(Nc2nc(Cl)c3nc[nH]c3n2)cc1Cl" in this assay.
Result: n

Query: Per the assay record, what outcome was assigned to "COc1ccc(CCn2cncn2)cc1" ?
Result: n

Query: # fetch the recorded call for C/C(=N/NC(=O)C[n+]1ccccc1)C(CN(CC(C)C)CC(C)C)C(=O)Nc1ccc(C)cc1C (configuration not stated) here
Result: n

Query: // param item: "O=c1[nH]c2cc(C(F)(F)F)ccc2nc1CBr" ; yields the recorded call
Result: n

Query: Dear all, I need the recorded test outcome for "Cc1c(C)c(C)c(-n2c(=O)n(C)c(=O)n2-c2cc(C(C)(C)C)cc(C(C)(C)C)c2O)c(C)c1C" , thank you.
Result: n

Query: # fetch the recorded call for CCCC(=O)NC(C(=O)OCC)(N1CCOCC1)C(F)(F)F (configuration not stated) here
Result: n

Query: Record lookup: outcome of this test for CCC1CN2CCc3cc(OC)c(OC)cc3C2CC1CC1c2cc(OC)c(OC)cc2CCN1C(=O)C1CCCN1 (configuration not stated) ?
Result: n

Query: So what was the verdict on "N#Cc1ccc(Oc2nc3ccccc3nc2C(=O)O)cc1" in this test?
Result: n

Query: Recorded call for CC1(C)CCC[C@@]2(C)C1CC[C@@]1(CO)O[C@H](C3=CC(=O)OC3O)C[C@H]12 (some centres not stated) ?
Result: n

Query: What did the test return for O=C1CC[C@@H](C(=O)N2CSC[C@H]2C(=O)O)N1 [PIDOTIMOD] ([pGlu]-[Thz]-OH) ?
Result: n

Query: Record request — test call for "O=C(NCCCl)SCCO"
Result: n

Query: Answer briefly: the call reported for "CC[P+](c1ccccc1)(N(C)C)N(C)C" in this assay.
Result: n

Query: Hey, what did the test say about "N=C1c2ccccc2C(=O)c2c(NCCNCCO)ccc(O)c21" ?
Result: y

Query: Which outcome was entered for the compound "COc1cc2c(c(OC)c1OC)C(=O)c1c(O)cc(C)c(OC)c1C2=O" in this test?
Result: n

----------
- Test system: SF-268
- assay.remarks: NCI tumour cell line growth inhibition, 48 h
Calls of active or inactive are those of the source. Rule as the data show it: active = GI50 up to about 1.1 µM and inactive = higher.
// one of active, inactive, no free text

Query: Test call, this molecule: Cc1cc(C(O)CNC(C)CCn2cnc3c2c(=O)n(C)c(=O)n3C)ccc1O (stereo not given)
Result: inactive

Query: Recorded test call requested for COc1cc(C2c3cc4c(cc3OC(NN)C2C)OCO4)cc(OC)c1OC (stereo not given)
Result: inactive

Query: Tell me the assay call for CC1=CC[C@H](C(C)C)C(C(O)[C@@H](C)O[Si](c2ccccc2)(c2ccccc2)C(C)(C)C)C1=O (stereo not given in full) please.
Result: inactive

Query: Can you look up the reported call for O=C1NC2C(O)CCCCC2C12CCCCC2 (stereo not given) for me?
Result: inactive

Query: Tell me the recorded outcome of this test for "CC(=O)C1=C(C)O[C@@H]2O[C@H](COCc3ccccc3)[C@@H](OCc3ccccc3)[C@H](O)[C@@H]2S1" .
Result: inactive

Query: Record request — test call for "CCOC(=O)/C=C/n1c2ccccc2c(=O)c2ccccc21"
Result: inactive

Query: Hey, what did the test say about "Cn1c2ccc([N+](=O)[O-])cc2c(=O)n1Cc1ccccc1F" ?
Result: inactive

Query: Which outcome was entered for the molecule "COC(=O)[C@@H]1c2c(oc3cc(CO)cc(O)c3c2=O)C=C[C@H]1O" in this test?
Result: inactive

Query: Please share the test call associated with "CC1=C[C@H]([C@H]2C=C(C)C(C(N)=O)=CN2Cc2c(Cl)cccc2Cl)N(Cc2c(Cl)cccc2Cl)C=C1C(N)=O" .
Result: inactive

Query: Recorded test outcome, item "COc1nc(C(=O)O)c(Cl)c(OC)c1Cl"
Result: inactive

Query: What classification did "CC(C)(Oc1ccc(C(=O)c2ccc(Cl)cc2)cc1Cl)C(=O)N1CCN(c2ccccc2)CC1" end up with in this test?
Result: inactive

Query: Per the records of this test, what outcome belongs to "CCc1nnc(S)n1/N=C/c1ccc(-c2ccc([N+](=O)[O-])cc2)o1" ?
Result: inactive

Query: Identify the outcome logged in this assay for the molecule shown: CCCC(=O)NC(C(=O)OCC)(N1CCOCC1)C(F)(F)F (stereo not given)
Result: inactive

Query: // return assay outcome for CC1=C(C#N)C(=C(C#N)C#N)OC1(C)Cc1ccccc1 (stereo not given)
Result: inactive

Query: Which outcome did this test record for the molecule "O=C(O)/C(Cl)=C(\Cl)C(=O)Nc1ccc(Cl)c(Cl)c1Cl" ?
Result: inactive

Query: recorded result category for "CSc1c(C(=O)Nc2ccc(Cl)cc2)c(N)n(N)c(=O)c1C#N" in this test
Result: inactive

Query: Each molecule tested received a call. Report the one for C=CCCN1CCc2c([nH]c3ccccc23)C1C(=O)O (stereo not given) .
Result: inactive

Query: // outcome(item) with item = "COc1cc(/C=C/c2ccc(/C=C/c3cc(OC)c(OC)c(OC)c3)cc2)cc(OC)c1OC"
Result: inactive

Query: Please indicate how the test categorized "Cc1ccc2c(c1)C/C(=C\c1ccccc1C(=O)O)C2=O" .
Result: inactive

Query: Could you please tell me the result logged for CCCCC1Cc2ccccc2-c2n1c1ccccc1[n+]2C (stereo not given) in this assay?
Result: inactive

Query: Test call for this molecule, please: COC12CCC(C(C(=O)c3ccccc3)=C1C(=O)c1ccccc1)C(O)C2 (stereo not given)
Result: inactive

Query: What is the recorded call for this molecule in the test? "CN(C)C(=S)/N=c1\ssc(=S)n1Cc1cccnc1"
Result: inactive

Query: Record request — test call for COC(=O)[C@@]12C=CC(=O)[C@H]3C[C@@H](C(C(C)C)C1)[C@]32OC (stereo not given in full)
Result: inactive

Query: Which outcome was entered for the molecule CC(C)C1(NC(=O)C2CC3c4cccc5[nH]cc(c45)CC3N(C)C2)OC2(O)C3CCCN3C(=O)C(Cc3ccccc3)N2C1=O (stereo not given) in this test?
Result: inactive

Query: So what was the verdict on CN1CCC23c4c5ccc(O)c4OC2c2[nH]c4ccccc4c2CC3(O)C1C5 (stereo not given) in this test?
Result: inactive

Query: What did the test return for "O=C1C=CC(=O)c2c(Cl)ccc(O)c21" ?
Result: inactive

Query: Which outcome was entered for the molecule CC1CC(N)=Nc2ccccc2N1 (stereo not given) in this test?
Result: inactive

Query: Give the logged outcome of this assay for the following molecule: "COc1ccc(N(C)CN(C)c2nc(N(C)C)nc(N(C)C)n2)cc1"
Result: inactive

Query: Status in this test for COC(=O)c1ccccc1C1CN=NC12Cc1c(ccc(C)c1C)C2=O (stereo not given) ?
Result: inactive

Query: Which outcome was assigned to "O[C@H]1[C@H]2[C@H](O)C[C@H](CCOCc3ccccc3)CN2C[C@H]1O" in this test?
Result: inactive

Query: Assay result, entry C=C1CC2(CCS(=O)(=O)c3ccccc32)OC1=O (stereo not given) — outcome?
Result: inactive

Query: Name the outcome recorded for "CCOC(=O)c1sc2nc1CSc1sc(=S)sc1SCc1nc(sc1C(=O)OCC)-c1nc(c(C(=O)OCC)s1)CSc1sc(=S)sc1SCc1nc-2sc1C(=O)OCC" in the assay.
Result: inactive

Query: Recorded test call requested for "CN(CCO)Cc1ncccc1O"
Result: inactive

Query: Test call for this molecule, please: "Cc1c(S(=O)(=O)O)ccc(/N=N/c2c(O)c(C(=O)O)cc3ccccc23)c1Cl"
Result: inactive

Query: Hello, I am checking results. What call was entered for "C=CCn1c(=O)c2ccccc2[n+]2c(-c3cccc([N+](=O)[O-])c3)csc12" ?
Result: inactive

Query: Status in this test for "CCOC(=O)c1ccc2nc(NC(=O)COC(=O)CSc3nc(C)cc(C)n3)sc2c1" ?
Result: inactive

Query: Kindly provide the recorded test outcome for the following molecule: CC1NC(=O)C(C)C(c2ccccc2)N(N=O)C1c1ccccc1 (stereo not given)
Result: inactive

Query: Name the outcome recorded for C[C@@H]1O[C@@H](O[C@H]2CC[C@]3(C=O)[C@H]4CC[C@]5(C)[C@@H](C6=CC(=O)OC6)CC[C@]5(O)[C@@H]4CC[C@]3(O)C2)[C@H](O)[C@H](O)[C@H]1O [CONVALLATOXIN] in the assay.
Result: active

Query: Recorded call for COC(=O)[C@@]1(NC(=O)C(CC(=O)OC(C)(C)C)NC(=O)OC(C)(C)C)C[C@H]1C (stereo not given in full) ?
Result: inactive

Query: Name the outcome recorded for "C/C(=N\O)c1ccc(Nc2nc3ccccc3c3occc23)cc1" in the assay.
Result: inactive
